target: Shiga toxin 2 (Escherichia coli O157:H7) (UniProt P09385+P09386); assay: E. coli 0.157:H7 Shiga Toxin SOP - stx2 screening assay; assay type: functional; set-up: scale not given: direction of the effect not stated beside the values; conditions: 30 µM
Percent Effect vs -10%: at or above is 1 (yes), below is 0 (no).

# count of solved cases: 4
CCN1CCN(Cc2ccnc(-c3cccnc3)n2)CC1 :: 0 (no)
CC(OCC1CC1)C(=O)N1CCCN(Cc2cnn(C)c2)CC1 (stereo unspecified) :: 0 (no)
O=C(CCc1ccc(Cl)s1)N1CCCC(n2cncn2)C1 (stereo unspecified) :: 1 (yes)
Cc1nc(CNC(=O)NCCc2ccc(N(C)C)cc2)cs1 :: 1 (yes)

Here is the next item to consider.
[Q] Given `CS(=O)(=O)NCc1nnc2n1CCN(Cc1cccs1)C2` , state whether its Percent Effect is at least -10%.
[A] 1 (yes)
